# STUDY TARGET: Galectin-3 (Homo sapiens, UniProt P17931)
# Construct: made in house
# Sequence (P17931 whole entry): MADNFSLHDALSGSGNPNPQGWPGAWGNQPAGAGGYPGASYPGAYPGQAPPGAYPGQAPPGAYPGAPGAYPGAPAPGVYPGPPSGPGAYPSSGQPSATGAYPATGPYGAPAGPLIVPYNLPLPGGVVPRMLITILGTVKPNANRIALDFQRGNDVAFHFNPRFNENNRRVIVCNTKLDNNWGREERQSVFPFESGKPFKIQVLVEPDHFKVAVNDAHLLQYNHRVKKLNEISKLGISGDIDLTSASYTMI
# ASSAY OVERVIEW: FAC affinity test on galectin-immobilized column
# Assay type: binding
# RUN PARAMETERS: pyridyl-aminated carbohydrate; galectin-3 immobilized 0.5 mg/ml; less than 5 μl = below interaction detection limit
Items are presented alongside their recorded V − V0 Value.
API: value field is a number in µL; no unit string.

Worked examples, 2 molecules total:
MOLECULE: CC(=O)NC1C(OC2C(C(=O)O)OC(OC3C(O)C(CO)OC(OC4C(C(=O)O)OC(OC5C(O)C(CO)OC(OC6C(C(=O)O)OC(OC7C(O)C(CO)OC(OC8C(C(=O)O)OC(OC9C(O)C(CO)OC(OC%10C(C(=O)O)OC(OC%11C(O)C(CO)OC(O)C%11NC(C)=O)C(O)C%10O)C9NC(C)=O)C(O)C8O)C7NC(C)=O)C(O)C6O)C5NC(C)=O)C(O)C4O)C3NC(C)=O)C(O)C2O)OC(CO)C(O)C1O (stereo not shown)
STUDY TARGET: Galectin-3 (Homo sapiens, UniProt P17931)
RESULT UNITS: µL
MEASURED: 21.4

MOLECULE: CC(=O)N[C@H]1[C@H](O[C@H]2[C@@H](O)[C@@H](CO)O[C@@H](O[C@H]3[C@H](O)[C@@H](NC(C)=O)C(O)O[C@@H]3CO)[C@@H]2O)O[C@H](CO)[C@@H](O)[C@@H]1O (stereo partly shown)
STUDY TARGET: Galectin-3 (Homo sapiens, UniProt P17931)
RESULT UNITS: µL
MEASURED: 14.2

The molecule CC(=O)N[C@H]1[C@H](O[C@H]2[C@H](O)[C@@H](O)[C@H](O[C@H]3[C@@H](O)[C@@H](CO)O[C@@H](O[C@H]4[C@H](O)[C@@H](O)[C@H](O[C@H]5[C@@H](O)[C@@H](CO)OC(O)[C@@H]5NC(C)=O)O[C@@H]4C(=O)O)[C@@H]3NC(C)=O)O[C@@H]2C(=O)O)O[C@H](CO)[C@H](O)[C@@H]1O[C@@H]1O[C@H](C(=O)O)[C@@H](O)[C@H](O)[C@H]1O (stereo partly shown) showed V − V0 Value equal to 5.8

The molecule CC(=O)NC1C(O)OC(COS(=O)(=O)O)C(OC2OC(COS(=O)(=O)O)C(O)C(OC3OC(COS(=O)(=O)O)C(OC4OC(CO)C(O)C(OC5(C(=O)O)CC(O)C(NC(C)=O)C(C(O)C(O)CO)O5)C4O)C(O)C3NC(C)=O)C2O)C1O (stereo not shown) showed V − V0 Value equal to 8.2
